Reference source for all entries: PubChem BioAssay AID1159580

- test.method.notes: chemical genetic growth profiling, strain panel (AID 1159580);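 also: tested at 20 µM; growth read once vehicle control cultures reached saturation at 30 °C; 1 = growth at the plate median or of vehicle wells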
- particulars: S. cerevisiae deletion strains, growth OD, locus YLR320W, strain mms22, stronger effect = lower value
Hit rate of the full screen: of about 5,500 compounds, about 2,000 (36%) were called active. Another 18% or so got no clear call; they are omitted. The list shows a part of the results.
normalized growth less than 1 is MET; normalized growth greater than or equal to 1 is NOT MET.

// below: answered compounds
CC[C@@]1(O)C[C@H](O[C@H]2C[C@H](N(C)C)[C@H](O)[C@H](C)O2)c2c(cc3c(c2O)C(=O)c2c(O)cccc2C3=O)[C@H]1C(=O)OC	MET
CC1COc2c(N3CCN(C)CC3)c(F)cc3c(=O)c(C(=O)O)cn1c23 (centres undefined)	MET
CO/N=C1/CN(c2nc3c(cc2F)c(=O)c(C(=O)O)cn3C2CC2)CC1CN (centres undefined)	MET
CC[C@@]1(O)C[C@H](O[C@H]2C[C@H](N(C)C)[C@H](O)[C@H](C)O2)c2c(cc3c(c2O)C(=O)c2c(O)ccc(O)c2C3=O)[C@H]1C(=O)OC	MET
COc1ccc(C(c2ccc(OC)cc2)C(Cl)(Cl)Cl)cc1	MET

Could you now look at the following compound, please?
Asked: Is the reported normalized growth for NCCc1cnc[nH]1 strictly below 1?
Given back: NOT MET

====

- test.method.notes: chemical genetic growth profiling, strain panel (AID 1159580);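 also: tested at 20 µM; growth read once vehicle control cultures reached saturation at 30 °C; 1 = growth at the plate median or of vehicle wells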
- particulars: S. cerevisiae deletion strains, growth OD, locus YJR043C, strain POL32, stronger effect = lower value
The campaign covered roughly 5,500 compounds. About 2,000 (36%) were called active. Inconclusive results (about 18%) are left out. The list shows a part of the results.
Catalogue of molecules with associated normalized growth
Just the number, please, no unit attached.

Worked examples follow.
COc1ccc(-c2coc3cc(O)ccc3c2=O)c(OC)c1	0.999
OCC(O)CN1CCN(c2ccccc2)CC1 (centres undefined)	0.977
CNC(=O)O/N=C(\C)SC	1.01
O=C(O[C@@H]1Cc2c(O)cc(O)cc2O[C@@H]1c1cc(O)c(O)c(O)c1)c1cc(O)c(O)c(O)c1	0.317
O=C(Oc1cc(O)cc2c1C[C@@H](OC(=O)c1cc(O)c(O)c(O)c1)[C@@H](c1cc(O)c(O)c(O)c1)O2)c1cc(O)c(O)c(O)c1	0.13

Asked: # lookup: normalized growth of C=C1CCC2[C@](C)(CO)[C@H](O)CC[C@@]2(C)[C@@H]1C/C=C1/C(=O)OC[C@H]1O (some centres undefined)
Given back: 1.02

Asked: State the recorded normalized growth for this entry: CN1CC(=O)N=C1N
Given back: 1.01

Asked: What measured normalized growth goes with CCC[C@H](N[C@@H](C)C(=O)N1[C@H](C(=O)O)C[C@@H]2CCCC[C@@H]21)C(=O)OCC ?
Given back: 1.01

Asked: Requested field: normalized growth. Item: CN(C)C=Nc1ncccc1OCc1ccc(Cl)c(Cl)c1
Given back: 0.951

Asked: Could you tell me which normalized growth is on file for COC(=O)c1cc(=O)c(O)c2c(O)c(O)ccc2c1 ?
Given back: 0.709

====

- test.method.notes: chemical genetic growth profiling, strain panel (AID 1159580);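 also: tested at 20 µM; growth read once vehicle control cultures reached saturation at 30 °C; 1 = growth at the plate median or of vehicle wells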
- particulars: S. cerevisiae deletion strains, growth OD, locus YER015W, strain faa2, stronger effect = lower value
Among all 5,500 compounds or so, about 2,000 (36%) were called active. Inconclusive results (about 18%) are left out. The list shows a part of the results.
property.name: normalized growth
# answer = number (no unit)

Sample records with normalized growth:
COC(=O)C[C@H]1C2(C)CC34OC5(C)O[C@@]6([C@H](OC)C(OC(=O)C(C)C)[C@]7(C)C(/C(=C(/OC)C(C)C)C(=O)O[C@H]7c7ccoc7)[C@@]6(O5)[C@H](OC)[C@@]3(OC)C2OC(C)=O)[C@]14C (stereo partly specified)	0.978
CN1C2CCC1CC(OC(c1ccccc1)c1ccccc1)C2 (stereo unspecified)	0.99
NCCc1cnc[nH]1	1.01
O=C1NCC2(CCN(CCc3ccccc3)CC2)O1	1
COc1cc2nc(N(C)CCCNC(=O)C3CCCO3)nc(N)c2cc1OC (stereo unspecified)	0.995

Asked: # input compound: CC[C@]1(O)CC2CN(CCc3c([nH]c4ccccc34)[C@@](C(=O)OC)(c3cc4c(cc3OC)N(C)[C@H]3[C@@](O)(C(=O)OC)[C@H](OC(C)=O)[C@]5(CC)C=CCN6CC[C@]43[C@@H]65)C2)C1 (stereo partly specified) ; wanted: its normalized growth
Given back: 0.961

Asked: Any idea what its normalized growth is? The compound is C=C1CCC2[C@](C)(CO)[C@H](O)CC[C@@]2(C)[C@@H]1C/C=C1/C(=O)OC[C@H]1O (stereo partly specified)
Given back: 0.994

Asked: # input compound: C[C@@H]1CC(Cl)CC[C@H]1C(=O)OC(C)(C)C (stereo partly specified) ; wanted: its normalized growth
Given back: 0.986

Asked: So what does the record say about normalized growth for CCCCNC(=O)NS(=O)(=O)c1ccc(C)cc1 ?
Given back: 1.01

Asked: What value of normalized growth has been recorded for this entry: O=c1c(-c2ccc(O)cc2)coc2cc(O)ccc12
Given back: 0.993

Asked: Look up normalized growth: COc1ccc(-c2coc3cc(O)ccc3c2=O)c(OC)c1O
Given back: 0.983

Asked: Query: normalized growth; subject: COc1cc(CNC(=O)CCCC/C=C/C(C)C)ccc1O
Given back: 1

Asked: Returns the measured normalized growth for the input compound. Input: CN1CC(=O)N=C1N
Given back: 1.02
